Biological target: T1, Cynomolgus monkey MASP-2 D4-6 recombinant protein (Cynomolgus monkey, UniProt O00187 298-686 (human entry), limits assumed)
T1 construct: Made 'similarly' to the human protein (N-terminal his6 tag)
T1 sequence (O00187 other isoform, or with tags, fused parts or gaps limits assumed): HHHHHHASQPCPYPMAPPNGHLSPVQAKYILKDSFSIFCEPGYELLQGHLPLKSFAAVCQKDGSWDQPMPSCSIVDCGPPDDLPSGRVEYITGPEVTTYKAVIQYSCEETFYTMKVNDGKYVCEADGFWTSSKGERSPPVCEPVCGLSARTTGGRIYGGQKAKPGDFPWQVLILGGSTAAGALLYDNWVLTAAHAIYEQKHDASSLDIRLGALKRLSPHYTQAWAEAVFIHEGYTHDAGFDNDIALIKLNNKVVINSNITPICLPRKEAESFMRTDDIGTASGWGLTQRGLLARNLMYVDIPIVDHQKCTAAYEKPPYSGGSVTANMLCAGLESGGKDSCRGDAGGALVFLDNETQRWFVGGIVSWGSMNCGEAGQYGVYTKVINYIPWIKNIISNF
Assay: ELISA, antigen coated, chimeric IgG titrated, anti-human Fc-HRP
For each record, write down the corresponding pEC50.
Answers are plain numbers, as −log10 of the molar value.

Could I get pEC50 for every one of these entries?
1. chimeric antibody 16A17 (antibody, V domains shown) VH: DVQLQESGPGLVKPSQSLSLTCTVTGYSITSDYAWKWIRQFPGNKLEWMGYISYSGSTSYHPSLKGRISITRDTSKNQFFLQLNSVTADDTATYYCAILGYYAMDYWGQGTSVTVSS VL: DIVMTQSQKFMSTSVGDRVSITCKASQNVRVDVAWYQQKSGQSPRALIYLASNRHTGVPDRFTGSGSGTDFTLTITNVQSEDLADYFCPQHWSYPLTFGGGTKLEIK
2. chimeric antibody 28O14 (antibody, V domains shown) VH: QVQLQQSGTELARPGASVRMSCKASGYTFRSHTMHWVKQRPGQGLEWIGYINPSTGYINYNQKFKDKATLTADKSSSTAYMQLSSLTSEDSAVYYCARSNYSYYYGMDYWGQGTSVTVSS VL: DIVMTQSHKFMSTSVGDRVTITCKASQDVNTAVAWYQQKPGQSPKLLIYSASYRYTGVPDRFTGSGSGTDFTFTISSLQAEDLAVYYCQQHYNIPLTFGAGTKLELK
3. chimeric antibody 1B2 (antibody, V domains shown) VH: DVQLQESGPGLVKPSQSLSLTCTVTGYSITSDYAWNWIRQFSGDKLEWMGYISYSGSTSYNPSLKSRISITRDTSKNQFFLHLSSVTTEDTATYFCARYWGDYWGHGTTLTVSS VL: DSVMTQSQKFMSTSVGDRVSVTCKASHNVGTNVAWFQQKPGQSPKGLIYSASYRSSGVPDRFTGSGSGTDFTLTISNVQSEDLAEYFCLQYNSNPLTFGGGTKLEVK
4. chimeric antibody 4F18 (antibody, V domains shown, to be rechecked) VH: EVQLQESGPGLVKPSQSLSLACTVTGYSITSDYAWHWIRQFPGNKLEWMGFISYSGRTNYNPPLTSRISITRDTSKNQFFLQLNSVTTEDTATYYCARSYDYWFGYWGQGTLVTVSA VL: NVLMTQTPLSLPVSLGDQASISCRSSQSLVHSNGNTYLEWYMQKPGQSPKLLIYTVSRRFSGVPDRFSGSGSGTDFTLKISRVEAEDLGVYYCFQGSHVPVTFGAGTKLELK
5. chimeric antibody 25L15 (antibody, V domains shown) VH: KVKLVESGGDLVKPGGSLKISCAASGFTFSNYAMSWIRQTPDKRLEWVATVSSGGPYTYYPDSVKGRFTISRDNAENTLYLQMSSLRSDDTAIYYCARQIYSDYDVTYWGQGTLVTVSA VL: QIVLSQSPAILSASPGETVTMTCRVSSSVSYMYWLQQKPGSSPKPWIYATSNLASGVPARFSGSGSGTSYSLTITRVEAEDAATYYCQQWSFRPWTFGGGTKLEIK

10.85
10.37
10.85
11.52
11.10
